Target: T1, human PD-L1 ECD-His (human, UniProt Q9NZQ7 19-238)
T1 construct: extracellular domain; Analyte in all SPR and BLI runs; also called hPD-L1_ECD-His; hPD-L1 ECD-His; not shown: His tag
T1 sequence (Q9NZQ7 19-238): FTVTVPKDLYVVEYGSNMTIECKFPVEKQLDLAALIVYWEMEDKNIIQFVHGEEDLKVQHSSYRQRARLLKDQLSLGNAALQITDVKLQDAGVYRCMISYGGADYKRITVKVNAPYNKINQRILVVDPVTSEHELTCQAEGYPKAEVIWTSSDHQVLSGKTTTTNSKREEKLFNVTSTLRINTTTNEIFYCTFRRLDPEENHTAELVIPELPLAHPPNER
Experiment: SPR, ratio of KD to ref-1
Under this convention, class 1 denotes Improvement over ref-1 strictly below 1 fold and class 0 denotes Improvement over ref-1 at or above 1 fold.

Illustrative cases are given below, each with its answer.
PL3#1 mtIgG1 (N297A) (antibody, V domains shown, N297A mutant human IgG1) VH: QVQLVQSGAEVKKPGSSVKVSCKASGGTFSSYRISWVRQAPGQGLEWMGRIIPILGIANYAQKFQGRVTITADKSTSTAYMELSSLRSEDTAVYYCARSRDGYSVGAFDSWGQGTLVTVSS VL: QSVVTQPPPVSGAPGQRVTISCTGSSSNIGAGYDVHWYQQLPGTAPKLLIYGNSRRPSGVPDRFSGSKSGTSASLAITGLQAEDEADYYCQTYDSSLSRPVVFGGGTKLTVL :: class 0
PL3#7 IgG1 (antibody, V domains shown, Human IgG1) VH: QVQLVQSGAEVKKPGSSVKVSCKASGGTFSSYPISWVRQAPGQGLEWIGRIIPILGIANYAQKFQGRVTITADKSTSTAYMELSSLRSEDTAVYYCARSRDGYAFGAFDIWGQGTLVTVSS VL: QSVVTQPPPVSGAPGQRVTISCTGSSSNIGAGYDVHWYQQLPGTAPKLLIYGNSNRPSGVPDRFSGSKSGTSASLAITGLQAEDEADYYCQTYDSSLSARVVFGGGTKLTVL :: class 0

Consider the binder PL3#7 IgG2 (antibody, V domains shown, Human IgG2) VH: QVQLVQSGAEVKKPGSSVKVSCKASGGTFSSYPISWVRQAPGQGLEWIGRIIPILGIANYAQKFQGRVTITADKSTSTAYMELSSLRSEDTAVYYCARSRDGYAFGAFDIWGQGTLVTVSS VL: QSVVTQPPPVSGAPGQRVTISCTGSSSNIGAGYDVHWYQQLPGTAPKLLIYGNSNRPSGVPDRFSGSKSGTSASLAITGLQAEDEADYYCQTYDSSLSARVVFGGGTKLTVL . Is its Improvement over ref-1 strictly less than 1 fold?
class 0

Moving on to the next binder: PL3#7 IgG4 (antibody, V domains shown, Human IgG4) VH: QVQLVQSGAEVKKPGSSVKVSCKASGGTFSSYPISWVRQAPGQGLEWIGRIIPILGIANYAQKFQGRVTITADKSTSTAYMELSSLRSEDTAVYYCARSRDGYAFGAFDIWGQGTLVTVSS VL: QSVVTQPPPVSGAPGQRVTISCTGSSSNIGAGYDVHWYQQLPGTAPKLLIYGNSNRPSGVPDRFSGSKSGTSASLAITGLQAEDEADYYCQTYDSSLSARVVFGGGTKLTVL
class 0

Moving on to the next binder: PL3#1 IgG2 (antibody, V domains shown, Human IgG2) VH: QVQLVQSGAEVKKPGSSVKVSCKASGGTFSSYRISWVRQAPGQGLEWMGRIIPILGIANYAQKFQGRVTITADKSTSTAYMELSSLRSEDTAVYYCARSRDGYSVGAFDSWGQGTLVTVSS VL: QSVVTQPPPVSGAPGQRVTISCTGSSSNIGAGYDVHWYQQLPGTAPKLLIYGNSRRPSGVPDRFSGSKSGTSASLAITGLQAEDEADYYCQTYDSSLSRPVVFGGGTKLTVL
class 1

Moving on to the next binder: PL3 IgG1 (antibody, V domains shown) VH: QVQLVQSGAEVKKPGSSVKVSCKASGGTFSSYTISWVRQAPGQGLEWMGRIIPILGIANYAQKFQGRVTITADKSTSTAYMELSSLRSEDTAVYYCARSRDGYSFGAFDIWGQGTLVTVSS VL: QSVVTQPPPVSGAPGQRVTISCTGSSSNIGAGYDVHWYQQLPGTAPKLLIYGNSNRPSGVPDRFSGSKSGTSASLAITGLQAEDEADYYCQSYDSSLSAPVVFGGGTKLTVL
class 1
